System: RPMI-8226
Test: NCI tumour cell line growth inhibition, 48 h
Active and inactive are the calls of the source. Rule as the data show it: active = GI50 up to about 1.1 µM and inactive = higher.
Respond using exactly one of the listed classes: active, inactive

Before answering, review these 5 worked examples.
molecule	target-desc	class-name
Cc1ccc(NC(=O)CC2SC(Nc3ccc(Cl)cc3)=NC2=O)cc1C (configuration not stated)	RPMI-8226	inactive
NC1=NCC(CN2CCOCC2)O1 (configuration not stated)	RPMI-8226	inactive
CC1CC(c2ccccc2)Nc2nc3ccccc3n21 (configuration not stated)	RPMI-8226	inactive
Cc1ccc(C(=O)O)c(/C=C2\Cc3cc(C)cc(C)c3C2=O)c1	RPMI-8226	inactive
CCCCCCCCC(O)c1ccc(/C=C\C(O)CCCC(=O)O)s1 (configuration not stated)	RPMI-8226	inactive

Called result for NC(=S)N/N=C1\CCCC1C(O)(C(F)(F)Cl)C(F)(F)Cl (configuration not stated)
inactive

Check CC(C)(C)[Si](C)(C)OCC1OC(n2cnc3c(NC(=O)c4ccccc4)ncnc32)CC1O (configuration not stated) too.
inactive

Check Nc1nc2c(=O)c3ccccc3sc2s1 too.
inactive

Check O=C1C[C@H](COCc2ccccc2)NC(=O)C[C@H](COCc2ccccc2)NC(=O)C[C@H](COCc2ccccc2)N1 too.
inactive
